System: 966289-007-R4-J1-PDC complex spheroid viability
Test: Anticancer human tumor 966289-007-R4-J1-PDC patient-derived pancreatic adenocarcinoma cell line growth inhibition [RAS]
Settings: curve of first compound; second compound 0.003 µM
Measure: IC50 (nM)
Form entry: value (nM) — number only.

Observe how each entry below is paired with its result.
CCC(CC)c1cc(NC2CCC(N)C2)n2nccc2n1 (centres undefined) + CCn1c(-c2cc(N3CCN(C)CC3)cnc2C(C)OC)c2c3cc(ccc31)-c1csc(n1)CC(NC(=O)C1CC1C)C(=O)N1CCCC(N1)C(=O)OCC(C)(C)C2 | 1550
Nc1ccn(C2OC(CO)C(O)C2(F)F)c(=O)n1 (centres undefined) + CCn1c(-c2cccnc2C(C)OC)c2c3cc(ccc31)N1CCOC(CC(NC(=O)C(C(C)C)N(C)C(=O)C3(F)CCN(C(=O)C#CC(C)(C)N(C)C)CC3)C(=O)N3CCCC(N3)C(=O)OCC(C)(C)C2)C1 | 5.6

Moving on to another compound below.
Exercise: Fill in: IC50 of CC(C)NCC(C(=O)N1CCN(c2ncnc3c2C(C)CC3O)CC1)c1ccc(Cl)cc1 (centres undefined) + CCn1c(-c2cc(N3CCN(C)CC3)cnc2C(C)OC)c2c3cc(ccc31)-c1csc(n1)CC(NC(=O)C1CC1C)C(=O)N1CCCC(N1)C(=O)OCC(C)(C)C2 is ___
Key: 4530

====

Test system: 966289-007-R4-J1-PDC complex spheroid viability
Experiment: Anticancer human tumor 966289-007-R4-J1-PDC cell line growth inhibition [RAS];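 further: spheroids exposed to agents for one week before readout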
Details: curve of first compound; second compound 0.003 µM
Measure: pIC50
The quantity pIC50 is defined as the negative base-10 logarithm of the molar concentration.

CCc1c2c(nc3ccc(O)cc13)-c1cc3c(c(=O)n1C2)COC(=O)[C@]3(O)CC + CCn1c(-c2cc(N3CCN(C)CC3)cnc2C(C)OC)c2c3cc(ccc31)-c1csc(n1)CC(NC(=O)C1CC1C)C(=O)N1CCCC(N1)C(=O)OCC(C)(C)C2 | 8.80

Moving on to another molecule below.
Exercise: // lookup pIC50 | system=966289-007-R4-J1-PDC complex spheroid viability | key= CCc1c2c(nc3ccc(O)cc13)-c1cc3c(c(=O)n1C2)COC(=O)[C@]3(O)CC + CCn1c(-c2cccnc2C(C)OC)c2c3cc(ccc31)N1CCOC(CC(NC(=O)C(C(C)C)N(C)C(=O)C3(F)CCN(C(=O)C#CC(C)(C)N(C)C)CC3)C(=O)N3CCCC(N3)C(=O)OCC(C)(C)C2)C1
Key: 8.76

====

Tested on: 966289-007-R4-J1-PDC complex spheroid viability
Experiment: Anticancer human tumor 966289-007-R4-J1-PDC cell line growth inhibition [RAS];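 further: spheroids exposed to agents for one week before readout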;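 on viability, T/C: percent viability relative to DMSO vehicle control wells as 100%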
Conditions: compound 0.1 µM; stronger effect = lower value
Measure: viability, T/C

CCC(CC)c1cc(NC2CCC(N)C2)n2nccc2n1 (configuration not stated) | 92.7% [middle of 4 runs]

Exercise: // lookup viability, T/C | system=966289-007-R4-J1-PDC complex spheroid viability | key= NC1c2ccccc2OC12CCN(c1cnc3c(N4CCCc5ncccc54)n[nH]c3n1)CC2 (configuration not stated)
Key: 92.9% [middle of 4 runs]

Exercise: // lookup viability, T/C | system=966289-007-R4-J1-PDC complex spheroid viability | key= Nc1ccn(C2OC(CO)C(O)C2(F)F)c(=O)n1 (configuration not stated)
Key: 1.25% [middle of 4 runs]

Exercise: // lookup viability, T/C | system=966289-007-R4-J1-PDC complex spheroid viability | key= "CC(C)n1nc(-c2ccc3oc(N)nc3c2)c2c(N)ncnc21"
Key: 18.5% [middle of 4 runs]

Exercise: // lookup viability, T/C | system=966289-007-R4-J1-PDC complex spheroid viability | key= CC1(O)CCCC1n1c(=O)c(C(F)F)cc2cnc(NC3CCN(S(C)(=O)=O)CC3)nc21 (configuration not stated)
Key: 56.9% [middle of 4 runs]

Exercise: // lookup viability, T/C | system=966289-007-R4-J1-PDC complex spheroid viability | key= CC(=O)OC12COC1CC(O)C1(C)C(=O)C(O)C3=C(C)C(OC(=O)C(O)C(NC(=O)OC(C)(C)C)c4ccccc4)CC(O)(C(OC(=O)c4ccccc4)C21)C3(C)C (configuration not stated)
Key: 14.1% [middle of 4 runs]

Exercise: // lookup viability, T/C | system=966289-007-R4-J1-PDC complex spheroid viability | key= "O=C(c1ccc(F)c(F)c1Nc1ccc(I)cc1F)N1CC(O)([C@@H]2CCCCN2)C1"
Key: 75.8% [middle of 4 runs]
